The following compounds have recorded log10(Ki) on Histamine H3 receptor (Homo sapiens).
Response schema: value (number) is log10 of Ki in units of nM.

COc1ccccc1-c1ccc(CN(CC(=O)C(C)(C)O)C(=O)NC2CCN(Cc3ccc(C)cc3)CC2)cc1    4.00
COc1ccccc1-c1ccc(CN(CCC2CCN(Cc3ccc(C)cc3)CC2)C(=O)NC(C)(C)CO)cc1    3.82
CCC(COC(C)=O)(COC(C)=O)NC(=O)N(CCC1CCN(Cc2ccc(C)cc2)CC1)Cc1ccc(-c2ccc(F)cc2)cc1    2.74
CCC(COC(C)=O)(COC(C)=O)NC(=O)N(CCC1CCN(Cc2ccc(C)cc2)CC1)Cc1ccc(-c2cccc(C#N)c2)cc1    3.12
Cc1ccc(CN2CCC(NC(=O)N(CC(=O)C(C)(C)O)Cc3ccc(-c4cccc(C#N)c4)cc3)CC2)cc1    3.45

Q. May I ask what log10(Ki) has been recorded for CCC(COC(C)=O)(COC(C)=O)NC(=O)N(CCC1CCN(Cc2ccc(C)cc2)CC1)Cc1ccc(-c2ccccc2)cc1 ?
A. 2.91

Q. # input compound: COc1ccc(-c2ccc(CN(CCC3CCN(Cc4ccc(C)cc4)CC3)C(=O)NC(C)(C)CO)cc2)cc1 ; wanted: its log10(Ki)
A. 3.97

* * *

Molecular target: Histamine H3 receptor (Homo sapiens, UniProt Q9Y5N1)
Sequence (Q9Y5N1 whole entry): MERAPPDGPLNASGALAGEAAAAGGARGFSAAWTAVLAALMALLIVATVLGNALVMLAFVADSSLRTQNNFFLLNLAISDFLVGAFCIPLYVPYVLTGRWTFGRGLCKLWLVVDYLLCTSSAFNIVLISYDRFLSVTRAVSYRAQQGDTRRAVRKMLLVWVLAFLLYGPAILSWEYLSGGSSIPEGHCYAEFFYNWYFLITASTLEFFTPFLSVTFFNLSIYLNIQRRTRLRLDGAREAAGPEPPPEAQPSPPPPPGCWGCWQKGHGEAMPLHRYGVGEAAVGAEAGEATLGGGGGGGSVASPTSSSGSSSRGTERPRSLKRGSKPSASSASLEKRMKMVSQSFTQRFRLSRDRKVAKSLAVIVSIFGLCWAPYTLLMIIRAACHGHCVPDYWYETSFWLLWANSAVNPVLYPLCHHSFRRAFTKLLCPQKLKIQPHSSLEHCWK
Observed Property: Ki (nM)
Please give a number only; it is taken to be in nM.

Q. Field request: Ki | item: CC(=O)OCC(C)(C)NC(=O)N(CCC1CCN(Cc2ccc(C)cc2)CC1)Cc1ccc(-c2cccc(C#N)c2)cc1
A. 1630

Q. Query (molecule): CCC(CO)(CO)NC(=O)N(CCC1CCN(Cc2ccc(C)cc2)CC1)Cc1ccc(-c2cccc(C#N)c2)cc1 ; field requested: Ki
A. 8800

Q. GET /values?readout=Ki&item= CCC(CO)(CO)NC(=O)N(CCC1CCN(Cc2ccc(C)cc2)CC1)Cc1ccc(-c2ccc(OC)cc2)cc1
A. 899

Q. I have this molecule here, CCC(CO)(CO)NC(=O)N(CCC1CCN(Cc2ccc(C)cc2)CC1)Cc1ccc(-c2ccccc2OC)cc1 , and I need its recorded Ki.
A. 2140
